Give Purity (%) for every item shown.
Measurement Description: Long-term/accelerated stability test of crystalline salt forms in sealed aluminum foil bags
Assay type: physicochemical
Measurement Setup: −20° C., 1 month
Numbers only, in %.

Consider the worked cases shown below.
{"Compound": "CC1COCCN1c1cc(C(C)(C)C#N)c2c(n1)c(-c1cc[nH]n1)nn2C.O=S(=O)(O)O (stereo not drawn) [Crystalline form α of sulfate]", "Purity (%)": 97.62}
{"Compound": "CC1COCCN1c1cc(C(C)(C)C#N)c2c(n1)c(-c1cc[nH]n1)nn2C.CS(=O)(=O)O (stereo not drawn) [Crystalline form α of mesylate]", "Purity (%)": 98.73}
{"Compound": "CC1COCCN1c1cc(C(C)(C)C#N)c2c(n1)c(-c1cc[nH]n1)nn2C.O=C(O)C=CC(=O)O (centres unmarked) [Crystalline form I of maleate]", "Purity (%)": 99.04}
{"Compound": "CC1COCCN1c1cc(C(C)(C)C#N)c2c(n1)c(-c1cc[nH]n1)nn2C.CC1COCCN1c1cc(C(C)(C)C#N)c2c(n1)c(-c1cc[nH]n1)nn2C.O=C(O)C(=O)O (centres unmarked) [Crystalline form a of oxalate]", "Purity (%)": 99.57}

The record that follows has no Purity (%) shown yet.
Purity (%) reading for CC1COCCN1c1cc(C(C)(C)C#N)c2c(n1)c(-c1cc[nH]n1)nn2C.Cc1ccc(S(=O)(=O)O)cc1 (centres unmarked) [Crystalline form a of p-toluenesulfonate] : 98.46
